Answer each item with its documented TGI.
Tested on: OVCAR-4 ovarian
experiment.description: NCI tumour cell line growth inhibition, 48 h
Report only the number, with the unit µM understood.

## Input # value lookup — system OVCAR-4 ovarian, readout TGI, item NC(N)=N/N=C/c1c(Cl)nc2sccn12
## Output 46.4

## Input Same question, CCCCC/C=C/C/C=C/CCCCCCCC1=NC(C)(C)CN1C(C)C this time
## Output 3

## Input Same question, COc1cc([C@@H]2c3cc4c(cc3C(O[C@@H]3O[C@@H]5CO[C@@H](c6cccs6)OC5[C@H](O)[C@H]3O)C3COC(=O)[C@@H]32)OCO4)cc(OC)c1O (some centres not stated) this time
## Output 3.95
